Quick list: RBC per entry.
species: Rattus norvegicus; test: Open TG-GATES - Regimen: Single; format: toxicity, organism-based, Sprague-Dawley; parameters: regimen Single, gender Male, age 6 weeks; conditions: in vivo, po, 0 mg/kg, 3 h, tissue Blood, route gavage, dose level Control
Number only, in x10_4/ul; omit the unit.

Answered examples (6):
Cn1c(=O)c2[nH]cnc2n(C)c1=O.O [THEOPHYLLINE] = 632.2
O=C(O)c1cc(/N=N/c2ccc(S(=O)(=O)Nc3ccccn3)cc2)ccc1O [SULFASALAZINE] = 607.8
O=C(O)c1cn(C2CC2)c2cc(N3CCNCC3)c(F)cc2c1=O [CIPROFLOXACIN] = 598.8
Clc1ccccc1CN1CCc2sccc2C1 [TICLOPIDINE] = 623.4
COc1ccc2c(c1)c(CC(=O)O)c(C)n2C(=O)c1ccc(Cl)cc1 [INDOMETHACIN] = 618.8
CC(=O)Oc1ccccc1C(=O)O [ASPIRIN] = 611.4

Recall and state the measured RBC for NC(=O)N1c2ccccc2C=Cc2ccccc21 [CARBAMAZEPINE] .
611.8

Recall and state the measured RBC for CCc1cc(C(N)=S)ccn1 [ETHIONAMIDE] .
635.2

Recall and state the measured RBC for CN(C)CCC=C1c2ccccc2CCc2ccccc21 [AMITRIPTYLINE] .
616.6

Recall and state the measured RBC for COc1ccc(Cc2nccc3cc(OC)c(OC)cc23)cc1OC [PAPAVERINE] .
637.4
